# assay.explanation: qHTS Validation assay for Inhibitors of Plasmodium falciparum Dd2 growth in vitro; further: nearly all actives have a fitted effect of over 70% in size; further: potency means the concentration at half of the fitted maximal effect
# setup.conditions: P. falciparum Dd2 in RBCs, SYBR Green growth, 72 h; series mostly up to 28.7 µM
Hit rate of the full screen: of about 4,100 compounds, about 1,600 (39%) were called active. Not shown: some 25% with an inconclusive outcome. This is one part of the list.
recorded.metric: Potency

- molecule: "O=C(c1nc(-c2cccc(C(F)(F)F)c2)c2cnccn12)N1CCCC1"
  Potency: "10.6 µM (active)"
- molecule: "O=C1Nc2ccc(-c3cccc(C(F)(F)F)c3)cc2C(=O)N2CCN(C(=O)c3ccccc3)C[C@H]12"
  Potency: "inactive"
- molecule: "Cc1noc(-c2cccc(OC3CN(S(=O)(=O)c4cn(C)cn4)C3)c2)n1"
  Potency: "inactive"
- molecule: "CC(C)(C)C1CCC2(CC1)NC(=O)N(CC(=O)NC1CCCCC1)C2=O (configuration not stated)"
  Potency: "inactive"
- molecule: "Cc1cccc(C)c1-c1nc(C(=O)NCc2ccc(F)cc2)n2ccccc12"
  Potency: "inactive"
- molecule: "CC(C)CNC(=O)CN1CN(c2ccccc2)C2(CCN(C(=O)NC3CCCCC3)CC2)C1=O"
  Potency: "15 µM (active)"
- molecule: "O=C1NCCCCCCN(C(=O)C2CCCC2)[C@H]2CCCC[C@@H]12"
  Potency: "inactive"
- molecule: "CCCNC(=O)N1CC(Oc2cccc(-c3nc(-c4ccccc4)no3)c2)C1"
  Potency: "13.3 µM (active)"

Bench note: what Potency did O=C(Nc1ccccc1)N1CCC(N2CC(OCC3CC3)C23CCOCC3)CC1 (configuration not stated) show?
inactive

Likewise for COc1ccc(-c2cc(-c3ccc(N4CCOCC4)nc3)cn3cncc23)cc1 ?
7.69 µM (active)

Likewise for O=C(Cc1ccccc1)N1CCCC2(CC(c3cccc(C(F)(F)F)c3)=NO2)C1 (configuration not stated) ?
inactive

Likewise for O=C(NC[C@H]1OC[C@@H](NCc2ccccc2F)[C@@H]1O)Nc1ccccc1 ?
inactive

----------
# assay.explanation: qHTS Validation assay for Inhibitors of Plasmodium falciparum Dd2 growth in vitro; further: nearly all actives have a fitted effect of over 70% in size; further: potency means the concentration at half of the fitted maximal effect
# setup.conditions: P. falciparum Dd2 in RBCs, SYBR Green growth, 72 h; series mostly up to 28.7 µM
The whole screen tested about 4,100 compounds, of which about 1,600 (39%) were called active. Inconclusive results (about 25%) are left out. The list shows a part of the results.
recorded.metric: Potency

Solved entries (count: 5):
- molecule: "COc1ccc(CN2CCCCCNC(=O)CC2c2ccccc2)cc1Cn1ccnc1 (configuration not stated)"
  Potency: "9.44 µM (active)"
- molecule: "COC(=O)c1ccccc1NC(=O)Cn1c(=O)n(CCCC(=O)NCc2ccccc2Cl)c(=O)c2ccccc21"
  Potency: "inactive"
- molecule: "CCOc1ccc2nc(C)cc(Nc3ccc4c(c3)OCCO4)c2c1"
  Potency: "6.68 µM (active)"
- molecule: "Cc1ccc(-c2onc3ccc(C(=O)O)cc23)cc1"
  Potency: "inactive"
- molecule: "Cc1cccc(CN2CCCN(Cc3ccncc3)C(c3ccccc3)CC(=O)NCC2)c1 (configuration not stated)"
  Potency: "4.22 µM (active)"

Turning to the following molecule.
Bench note: what Potency did N#Cc1nc(Nc2cc(F)cc(F)c2)c2ncn(CC(F)F)c2n1 show?
4.73 µM (active)

----------
# assay.explanation: qHTS Validation assay for Inhibitors of Plasmodium falciparum Dd2 growth in vitro; further: nearly all actives have a fitted effect of over 70% in size; further: potency means the concentration at half of the fitted maximal effect
# setup.conditions: P. falciparum Dd2 in RBCs, SYBR Green growth, 72 h; series mostly up to 28.7 µM
In all, about 4,100 compounds went through this assay and about 1,600 (39%) were called active. Not shown: some 25% with an inconclusive outcome. The list shows a part of the results.
recorded.metric: Potency

- input.smiles: "O=C(Nc1ccccc1)c1cc2c(-c3ccccc3)nn(-c3ccccc3)c2s1"
  Potency: "3.35 µM (active)"

Bench note: what Potency did CCCCC(=O)Nc1nc(C)c(-c2csc(Nc3cc(OC)ccc3OC)n2)s1 show?
9.44 µM (active)

----------
# assay.explanation: qHTS Validation assay for Inhibitors of Plasmodium falciparum Dd2 growth in vitro; further: nearly all actives have a fitted effect of over 70% in size
# setup.conditions: P. falciparum Dd2 in RBCs, SYBR Green growth, 72 h; series mostly up to 28.7 µM
The whole screen tested about 4,100 compounds, of which about 1,600 (39%) were called active. About 25% were inconclusive and are not listed. Calls come from the whole dose curve; as a rule, active = well fitted inhibition curve with a large enough effect; inconclusive = small, poorly fitted or top-dose-only effect; inactive = no such curve, though single readings can be large or run the other way. This is one part of the list.
Returns: one label drawn from active, inactive

- compound: "COc1ccc(CCNC(=O)Cn2c(-c3cccs3)cc3cc(F)ccc32)cc1OC"
  assigned.category: "active"
- compound: "O=C(Nc1ccc2c(N3CCCC3)ncnc2c1)c1ccc(Br)cc1"
  assigned.category: "active"
- compound: "COc1nccnc1NC1CCN(C(=O)Cc2ccccc2)CC1"
  assigned.category: "inactive"
- compound: "O=C(NC1CCCN(c2cc(-c3ccc(Cl)cc3)[nH]n2)C1)c1ccc(Br)o1 (stereo not drawn)"
  assigned.category: "inactive"
- compound: "CCOC(=O)c1cccc(NC(=O)CCn2c(-c3ccc(F)cc3)cc(C(=O)OCC)c2C)c1"
  assigned.category: "active"

Look up the recorded call for Cc1ccccc1OCC(=O)Nc1ccccc1C(=O)OCc1cc(=O)n2ccsc2n1 in this test.
inactive

Likewise for Cc1ccc(C(=O)N2CCCN(c3cc(-c4ccc(Br)cc4)[nH]n3)CC2)cn1 ?
inactive

Likewise for Cc1csc2nc(COc3ccc(NC(=O)COc4ccccc4F)cc3)cc(=O)n12 ?
inactive

Likewise for CCCc1nn2c(=O)cc(COC(=O)c3cccc(NC(=O)COc4ccccc4C)c3)nc2s1 ?
active

Likewise for CC(C)(C)C1CCc2[nH]c3ccccc3c(=O)c2C1 (stereo not drawn) ?
active

Likewise for CCOC(=O)c1cccc(NC(=O)CSc2cc(=O)n(C)c3ccccc23)c1 ?
inactive

Likewise for CN(C)c1cc(N2CCCC(NC(=O)NCc3ccccc3)C2)ncn1 (stereo not drawn) ?
inactive

Likewise for O=C(Nc1ccc2c(N3CCOCC3)ncnc2c1)c1cccc(Br)c1 ?
active

----------
# assay.explanation: qHTS Validation assay for Inhibitors of Plasmodium falciparum Dd2 growth in vitro; further: nearly all actives have a fitted effect of over 70% in size
# setup.conditions: P. falciparum Dd2 in RBCs, SYBR Green growth, 72 h; series mostly up to 28.7 µM
In all, about 4,100 compounds went through this assay and about 1,600 (39%) were called active. Inconclusive results (about 25%) are left out. The call rests on the fitted dose curve; in most records, active means well fitted inhibition curve with a large enough effect; inconclusive means small, poorly fitted or top-dose-only effect; inactive means no such curve, though single readings can be large or run the other way. The list shows a part of the results.
Returns: one label drawn from T = active, F = inactive

- compound: "CC1CCN(c2nc3ccc(C(=O)O)cc3s2)CC1"
  assigned.category: "F"

Look up the recorded call for CCC(C(=O)NCCn1ccn2nc(-c3ccc(OC)cc3)cc2c1=O)c1ccccc1 (stereo not given) in this test.
T

Likewise for COc1ccc(C2=C(Nc3ccccc3)c3ccccc3C2=O)cc1 ?
T

Likewise for COc1ccc(NC2=C(c3ccc(C(F)(F)F)cc3)C(=O)c3ccccc32)cc1 ?
T

Likewise for COCCn1cnc2ccc(Nc3ccc(C(F)(F)F)cc3)nc2c1=O ?
F

----------
# Potency per record follows
# assay.explanation: qHTS Validation assay for Inhibitors of Plasmodium falciparum Dd2 growth in vitro; further: nearly all actives have a fitted effect of over 70% in size; further: potency means the concentration at half of the fitted maximal effect
# setup.conditions: P. falciparum Dd2 in RBCs, SYBR Green growth, 72 h; series mostly up to 28.7 µM
In all, about 4,100 compounds went through this assay and about 1,600 (39%) were called active. About 25% were inconclusive and are not listed. The list shows a part of the results.

Solved entries (count: 4):
- compound: "CCCc1cc(=O)oc2c(C)c(O)c(CN3CCCCC3)cc12"
  Potency: "3.35 µM (active)"
- compound: "N#Cc1ccc(CN2CC[C@@H]3C(=O)NCCCCCCN(Cc4ccncc4)[C@@H]3C2)cc1"
  Potency: "10.6 µM (active)"
- compound: "Cc1c(O)c(CN2CCCC2)cc2c1oc(=O)c1ccccc12"
  Potency: "2.66 µM (active)"
- compound: "Cc1cnc(CC2CCCN(S(=O)(=O)c3ccccc3)C2)n1CC1CC1 (stereo not given)"
  Potency: "6.68 µM (active)"

Turning to the following compound.
Bench note: what Potency did CCc1ccc(NC(=O)CSc2nc3n[nH]c(C)c3c(=N)n2-c2ccc(C)cc2)cc1 show?
6.68 µM (active)

----------
# assay.explanation: qHTS Validation assay for Inhibitors of Plasmodium falciparum Dd2 growth in vitro; further: nearly all actives have a fitted effect of over 70% in size; further: potency means the concentration at half of the fitted maximal effect
# setup.conditions: P. falciparum Dd2 in RBCs, SYBR Green growth, 72 h; series mostly up to 28.7 µM
The campaign covered roughly 4,100 compounds. About 1,600 (39%) were called active. Inconclusive results (about 25%) are left out. This is one part of the list.
recorded.metric: Potency

Solved entries (count: 7):
- compound: "Cc1cc(C)cc(NC(=O)NCc2c(-n3cccc3)sc3c2CCCC3)c1"
  Potency: "inactive"
- compound: "Cc1oc(C(C)C)cc1C(=O)N1CC[C@](C)(O)[C@@H](O)C1"
  Potency: "inactive"
- compound: "C#Cc1ccc(C(=O)Nc2ccc(N3CCC(C)CC3)c(C(N)=O)c2)cc1"
  Potency: "6.68 µM (active)"
- compound: "CCN1CCN(Cc2ccc(NC(=O)c3cc(NC(=O)C4=NN(c5ccccc5)C(=O)C4)cc(OC)c3)cc2C(F)(F)F)CC1"
  Potency: "8.41 µM (active)"
- compound: "CC1CCCCN1c1ccc(N)cc1C(N)=O (stereo not drawn)"
  Potency: "inactive"
- compound: "Cc1ccc(O)c(CN2CCCC(c3nc(CC(C)C)no3)C2)c1 (stereo not drawn)"
  Potency: "9.44 µM (active)"
- compound: "CCN1CCN(Cc2c(O)ccc3c(=O)c(Oc4ccccc4C(C)C)c(C(F)(F)F)oc23)CC1"
  Potency: "0.596 µM (active)"

Turning to the following compound.
Bench note: what Potency did CCCCN(C(=O)c1cccc(S(=O)(=O)N(C)c2ccc(C)cc2)c1)c1c(N)n(CCCC)c(=O)[nH]c1=O show?
5.31 µM (active)
